system: Rattus norvegicus; experiment: Toxicity in anaesthetized-Wistar rat assessed as Q-T ECG interval at 40 mg/kg, ip after 30 mins (reference value: 78.3 +/- 0.860 ms); type: organism-based; design: dose 40 mg/kg, route intraperitoneal; settings: in vivo, 0.5 h
Readout Label: Activity (min)
Quick note: give the figure in min, leave out the unit.

Worked cases, answers included:
[
  {
    "Compound": "O=C1/C(=C\\c2ccccc2)S/C(=N\\c2ccccc2)N1CC(O)CN1CCN(Cc2ccccc2)CC1 (centres undefined)",
    "Quantitative Readout": 73.2
  },
  {
    "Compound": "CC(C)N1CCN(CC(O)CN2C(=O)/C(=C\\c3ccccc3)S/C2=N\\c2ccccc2)CC1 (centres undefined)",
    "Quantitative Readout": 76.6
  },
  {
    "Compound": "O=C1/C(=C\\c2ccccc2)S/C(=N\\c2ccccc2)N1CC(O)CN1CCCC1 (centres undefined)",
    "Quantitative Readout": 72.6
  },
  {
    "Compound": "O=C1/C(=C\\c2ccccc2)S/C(=N\\c2ccccc2)N1CC(O)CN(c1ccccc1)c1ccccc1 (centres undefined)",
    "Quantitative Readout": 72.3
  },
  {
    "Compound": "O=C1/C(=C\\c2ccccc2)S/C(=N\\c2ccccc2)N1CC(O)CN1CCOCC1 (centres undefined)",
    "Quantitative Readout": 73.2
  },
  {
    "Compound": "CN1CCN(CC(O)CN2C(=O)/C(=C\\c3ccccc3)S/C2=N\\c2ccccc2)CC1 (centres undefined)",
    "Quantitative Readout": 75.2
  },
  {
    "Compound": "O=C1/C(=C\\c2ccccc2)S/C(=N\\c2ccccc2)N1CC(O)CN1CCN(c2ccccc2)CC1 (centres undefined)",
    "Quantitative Readout": 74.2
  },
  {
    "Compound": "O=C1/C(=C\\c2ccccc2)S/C(=N\\c2ccccc2)N1CC(O)CN1CCN(C2CCCCC2)CC1 (centres undefined)",
    "Quantitative Readout": 73.3
  }
]

Reported Activity of CCCCN(CCCC)CC(O)CN1C(=O)/C(=C\c2ccccc2)S/C1=N\c1ccccc1 (centres undefined) : 68.9

###

Quick reference for Activity among some molecules
system: Rattus norvegicus; experiment: Toxicity in anaesthetized-Wistar rat assessed as QRS ECG interval at 40 mg/kg, ip after 15 mins (reference value: 18.9 +/- 1.563 ms); type: organism-based; parameters: dose 40 mg/kg, route intraperitoneal; conditions: in vivo, 0.25 h
Write down the numeric answer in min and omit the unit.

[
  {
    "Molecule": "O=C1/C(=C\\c2ccccc2)S/C(=N\\c2ccccc2)N1CC(O)CN(c1ccccc1)c1ccccc1 (centres undefined)",
    "Unit Abbrev": "min",
    "Activity": 21.2
  },
  {
    "Molecule": "CN1CCN(CC(O)CN2C(=O)/C(=C\\c3ccccc3)S/C2=N\\c2ccccc2)CC1 (centres undefined)",
    "Unit Abbrev": "min",
    "Activity": 22.6
  },
  {
    "Molecule": "CCCN(CCC)CC(O)CN1C(=O)/C(=C\\c2ccccc2)S/C1=N\\c1ccccc1 (centres undefined)",
    "Unit Abbrev": "min",
    "Activity": 23.2
  },
  {
    "Molecule": "O=C1/C(=C\\c2ccccc2)S/C(=N\\c2ccccc2)N1CC(O)CN1CCN(C2CCCCC2)CC1 (centres undefined)",
    "Unit Abbrev": "min",
    "Activity": 21.4
  },
  {
    "Molecule": "O=C1/C(=C\\c2ccccc2)S/C(=N\\c2ccccc2)N1CC(O)CN1CCNCC1 (centres undefined)",
    "Unit Abbrev": "min",
    "Activity": 21.6
  }
]

Next item in the queue.
Lookup result for CC(C)N1CCN(CC(O)CN2C(=O)/C(=C\c3ccccc3)S/C2=N\c2ccccc2)CC1 (centres undefined) ; measured Activity: 23.7

###

Measured Activity, listed per entry for reference.
tested on: Rattus norvegicus; assay: Toxicity in anesthetized-normotensive Wistar rat assessed as heart rate at 40 mg/kg, ip after 30 mins (reference value: 317.68 +/- 7.631 bpm); type: organism-based; design: dose 40 mg/kg, route intraperitoneal; settings: in vivo, 0.5 h
Form entry: value (bpm) — number only.

[
  {
    "Compound": "O=C1/C(=C\\c2ccccc2)S/C(=N\\c2ccccc2)N1CC(O)CN1CCNCC1 (stereo not given)",
    "Activity, bpm": 259.31
  }
]

Activity reading for O=C1/C(=C\c2ccccc2)S/C(=N\c2ccccc2)N1CC(O)CN1CCN(Cc2ccccc2)CC1 (stereo not given) : 283.52

Field Activity (entry CN1CCN(CC(O)CN2C(=O)/C(=C\c3ccccc3)S/C2=N\c2ccccc2)CC1 (stereo not given) ) reads 256.32

Reported Activity for O=C1/C(=C\c2ccccc2)S/C(=N\c2ccccc2)N1CC(O)CN1CCN(c2ccccc2)CC1 (stereo not given) was 295.41

Measured Activity of CC(C)N1CCN(CC(O)CN2C(=O)/C(=C\c3ccccc3)S/C2=N\c2ccccc2)CC1 (stereo not given) : 272.41

###

test system: Rattus norvegicus; test: Toxicity in anaesthetized-Wistar rat assessed as QRS ECG interval at 40 mg/kg, ip measured immediately at 0 min (reference value: 19.6 +/- 1.142 ms); format: organism-based; parameters: dose 40 mg/kg, route intraperitoneal; settings: in vivo, 0 h
The label rule met is reserved for Activity strictly under 20 min; rule not met covers values equal to or above it.

// known answers, use as guide
[
  {
    "Compound": "O=C1/C(=C\\c2ccccc2)S/C(=N\\c2ccccc2)N1CC(O)CN1CCOCC1 (centres undefined)",
    "Assayed Target": "Rattus norvegicus",
    "Category Label": "rule not met"
  },
  {
    "Compound": "CCN(CC)CC(O)CN1C(=O)/C(=C\\c2ccccc2)S/C1=N\\c1ccccc1 (centres undefined)",
    "Assayed Target": "Rattus norvegicus",
    "Category Label": "rule met"
  },
  {
    "Compound": "CN1CCN(CC(O)CN2C(=O)/C(=C\\c3ccccc3)S/C2=N\\c2ccccc2)CC1 (centres undefined)",
    "Assayed Target": "Rattus norvegicus",
    "Category Label": "rule not met"
  },
  {
    "Compound": "O=C1/C(=C\\c2ccccc2)S/C(=N\\c2ccccc2)N1CC(O)CN1CCN(c2ccccc2)CC1 (centres undefined)",
    "Assayed Target": "Rattus norvegicus",
    "Category Label": "rule not met"
  }
]

*Q* Quick check: Activity of CC(C)N1CCN(CC(O)CN2C(=O)/C(=C\c3ccccc3)S/C2=N\c2ccccc2)CC1 (centres undefined) under 20 min?
*A* rule not met

###

system: Rattus norvegicus; assay: Toxicity in anaesthetized-Wistar rat assessed as Q-T ECG interval at 40 mg/kg, ip after 45 mins (reference value: 78.8 +/- 0.927 ms); format: organism-based; set-up: dose 40 mg/kg, route intraperitoneal; conditions: in vivo, 0.75 h
Readout Label: Activity (min)
Answer format: numeric, min implied, no suffix.

Previously resolved entries follow.
[
  {
    "Compound": "O=C1/C(=C\\c2ccccc2)S/C(=N\\c2ccccc2)N1CC(O)CN(c1ccccc1)c1ccccc1 (stereo not drawn)",
    "Assayed Target": "Rattus norvegicus",
    "Quantitative Readout": 0.00119
  },
  {
    "Compound": "O=C1/C(=C\\c2ccccc2)S/C(=N\\c2ccccc2)N1CC(O)CN1CCN(C2CCCCC2)CC1 (stereo not drawn)",
    "Assayed Target": "Rattus norvegicus",
    "Quantitative Readout": 0.00122
  },
  {
    "Compound": "O=C1/C(=C\\c2ccccc2)S/C(=N\\c2ccccc2)N1CC(O)CN1CCNCC1 (stereo not drawn)",
    "Assayed Target": "Rattus norvegicus",
    "Quantitative Readout": 82.4
  }
]

The compound O=C1/C(=C\c2ccccc2)S/C(=N\c2ccccc2)N1CC(O)CN1CCN(c2ccccc2)CC1 (stereo not drawn) on Rattus norvegicus: Activity was 74.9

Record O=C1/C(=C\c2ccccc2)S/C(=N\c2ccccc2)N1CC(O)CN1CCC(C(O)(c2ccccc2)c2ccccc2)CC1 (stereo not drawn) has Rattus norvegicus Activity equal to 74.9

Reading of Activity for CCCN(CCC)CC(O)CN1C(=O)/C(=C\c2ccccc2)S/C1=N\c1ccccc1 (stereo not drawn) with Rattus norvegicus: 74.9

The value of Activity recorded for CC(C)N1CCN(CC(O)CN2C(=O)/C(=C\c3ccccc3)S/C2=N\c2ccccc2)CC1 (stereo not drawn) when tested on Rattus norvegicus reads 77.1

# lookup: CCN(CC)CC(O)CN1C(=O)/C(=C\c2ccccc2)S/C1=N\c1ccccc1 (stereo not drawn) on Rattus norvegicus, Activity = 84.8

###

test system: Rattus norvegicus; assay: Toxicity in anaesthetized-Wistar rat assessed as P-Q ECG interval at 40 mg/kg, ip after 45 mins (reference value: 52.5 +/- 0.780 ms); assay type: organism-based; set-up: dose 40 mg/kg, route intraperitoneal; details: in vivo, 0.75 h
Readout Label: Activity
Lab note: write values as number then unit, every time.

As a guide, the following entries are already answered.
[
  {
    "Compound": "O=C1/C(=C\\c2ccccc2)S/C(=N\\c2ccccc2)N1CC(O)CN1CCCCC1 (stereo not given)",
    "Result": "50.6 min"
  },
  {
    "Compound": "O=C1/C(=C\\c2ccccc2)S/C(=N\\c2ccccc2)N1CC(O)CN1CCN(C2CCCCC2)CC1 (stereo not given)",
    "Result": "50.6 min"
  },
  {
    "Compound": "O=C1/C(=C\\c2ccccc2)S/C(=N\\c2ccccc2)N1CC(O)CN1CCN(Cc2ccccc2)CC1 (stereo not given)",
    "Result": "51.3 min"
  },
  {
    "Compound": "CN1CCN(CC(O)CN2C(=O)/C(=C\\c3ccccc3)S/C2=N\\c2ccccc2)CC1 (stereo not given)",
    "Result": "54.9 min"
  }
]

Note: attention shifts to another entry.
Reported Activity of O=C1/C(=C\c2ccccc2)S/C(=N\c2ccccc2)N1CC(O)CN1CCCC1 (stereo not given) : 53.3 min
